B1: LINE1-full (parent)
chain: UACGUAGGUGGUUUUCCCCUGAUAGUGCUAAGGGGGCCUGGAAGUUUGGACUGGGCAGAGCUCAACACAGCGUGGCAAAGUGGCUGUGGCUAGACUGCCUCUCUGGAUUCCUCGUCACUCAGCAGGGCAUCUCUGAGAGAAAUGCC

variants of: B1; test: self-cleavage, relative activity (ratio to wild type); higher = more cleavage; in vitro, sequencing; the parent is a self-cleaving ribozyme
PROPERTY MEASURED: self-cleavage
In your answer, state the number alone without any accompanying words.

Please review the following examples before continuing.
>>> reported_measurement("A2U U85A")
0.04
>>> reported_measurement("U52G A141G")
1.72
>>> reported_measurement("A22U U119G")
2.23
>>> reported_measurement("G34U U81C")
2.12
>>> reported_measurement("U29G U87C")
0.19
>>> reported_measurement("G82A U85A")
0.14
>>> reported_measurement("G48A A124U")
1.02
>>> reported_measurement("U39A C63U")
0.43

input: self-cleavage lookup needed for A67U C110U , thanks.
output: 0.14

input: Need self-cleavage, item C19U A65G
output: 0.14

input: Consider the variant U46A U143A and give its measured self-cleavage.
output: 1.38

input: Please give the measured self-cleavage for this variant: C3U U115A
output: 0.72

input: Quick one: self-cleavage for C98A A138G ?
output: 0.29

input: Quick one: self-cleavage for C51U A67C ?
output: 0.05

input: Quick one: self-cleavage for U26A A59U ?
output: 0.65

input: What does the data say about its self-cleavage? Entry: U85C A136C
output: 0.24

input: Suppose we examine the variant A30C A136U ; what self-cleavage value has been reported?
output: 1.19
